Reported percentage damage caused to the plant, ECHCG is given for each of the following molecules.
- Test system: Echinochloa crus-galli (ECHCG)
- Protocol details: Post-emergence herbicidal glasshouse test
- Type: in vivo
- Experimental parameters: post-emergence spray, 1000 g/ha, evaluated after 13 days, five-point scale

stdin: Bench note: what percentage damage caused to the plant, ECHCG did "N#Cc1cc(Br)c(O)c(-c2cccs2)c1" show?
stdout: 1 (1=0-20%)

stdin: Can you handle "N#Cc1cc(Br)c(O)c(-c2cncc(F)c2)c1" next?
stdout: 1 (1=0-20%)

stdin: Likewise for "N#Cc1cc(Br)c(O)c(-c2ccccc2)c1" ?
stdout: 1 (1=0-20%)

stdin: And what about the molecule "N#Cc1cc(Br)c(O)c(-c2cnc3c(c2)OC(F)(F)O3)c1" ?
stdout: 3 (3=41-60%)

stdin: Quick one: "Cc1cc(F)cc(-c2cc(C#N)cc(C(F)(F)F)c2O)c1"
stdout: 1 (1=0-20%)

---

- Test system: Echinochloa crus-galli (ECHCG)
- Protocol details: Post-emergence herbicidal glasshouse test
- Format: in vivo
- Experimental parameters: post-emergence spray, 1000 g/ha, evaluated after 13 days, five-point scale
Measurement type: percentage damage caused to the plant, ECHCG

# count of solved cases: 5
Molecule: N#Cc1cc(Br)c(O)c(-c2ccc(F)c(F)c2)c1 [Compound 1.130]
Value: 1 (1=0-20%)
--
Molecule: N#Cc1cncc(-c2cc(C#N)cc(Br)c2O)c1 [Compound 1.067]
Value: 2 (2=21-40%)
--
Molecule: N#Cc1cc(Br)c(O)c(-c2cccc(Br)c2)c1 [Compound 1.061]
Value: 1 (1=0-20%)
--
Molecule: N#Cc1cc(-n2cc(C(F)(F)F)cn2)c(O)c(C(F)(F)F)c1 [Compound 1.190]
Value: 1 (1=0-20%)
--
Molecule: Cc1cn(-c2cc(C#N)cc(C(F)(F)F)c2O)nc1C(F)(F)F [Compound 1.187]
Value: 1 (1=0-20%)

In the following, a different molecule is considered.
stdin: Looking for the measured percentage damage caused to the plant, ECHCG of N#Cc1cc(Br)c(O)c(-c2cccc(Cl)c2)c1 [Compound 1.054] , can you help?
stdout: 3 (3=41-60%)

---

# key: entry, value: percentage damage caused to the plant, ECHCG
- System: Echinochloa crus-galli (ECHCG)
- Protocol details: Post-emergence herbicidal glasshouse test
- Assay type: in vivo
- Experimental parameters: post-emergence spray, 1000 g/ha, evaluated after 13 days, five-point scale

stdin: Returns the measured percentage damage caused to the plant, ECHCG for the input compound. Input: "N#Cc1cc(Br)c(O)c(-c2cccc(C(F)(F)F)c2)c1"
stdout: 1 (1=0-20%)

---

- System: Echinochloa crus-galli (ECHCG)
- Protocol details: Post-emergence herbicidal glasshouse test
- Format: in vivo
- Experimental parameters: post-emergence spray, 1000 g/ha, evaluated after 13 days, five-point scale
Recorded percentage damage caused to the plant, ECHCG, one value per entry.

Compound: N#Cc1cc(Br)c(O)c(-c2cccc(Cl)c2F)c1 [Compound 1.045]
Value: 1 (1=0-20%)
--
Compound: N#Cc1cc(Br)c(O)c(-c2ccc(C(F)(F)F)cc2)c1 [Compound 1.058]
Value: 2 (2=21-40%)
--
Compound: N#Cc1cc(-c2cc(F)c(F)c(F)c2)c(O)c(C(F)(F)F)c1 [Compound 1.182]
Value: 1 (1=0-20%)

stdin: I am curious: what percentage damage caused to the plant, ECHCG value has been reported for N#Cc1cc(-c2cccc(OC(F)(F)F)c2)c(O)c(C(F)(F)F)c1 [Compound 1.165] ?
stdout: 1 (1=0-20%)

stdin: Next record, please: N#Cc1cc(-c2cccc(F)c2)c(O)c([N+](=O)[O-])c1 [Compound 1.191]
stdout: 2 (2=21-40%)

stdin: Also N#Cc1cc(OC(F)(F)F)c(O)c(-c2cccc(F)c2)c1 [Compound 1.002] , if possible.
stdout: 3 (3=41-60%)

stdin: Input CC(C)C(=O)Oc1c(Cl)cc(C#N)cc1-c1cccc(F)c1 [Compound 2.006]
stdout: 1 (1=0-20%)

stdin: Would you kindly repeat that for N#Cc1cc(Cl)c(O)c(-c2cccc(F)c2)c1 [Compound 1.004] ?
stdout: 3 (3=41-60%)

stdin: Another: N#Cc1cc(Br)c(O)c(-c2cncnc2)c1 [Compound 1.044]
stdout: 2 (2=21-40%)

---

- Tested on: Echinochloa crus-galli (ECHCG)
- Protocol details: Post-emergence herbicidal glasshouse test
- Assay type: in vivo
- Experimental parameters: post-emergence spray, 1000 g/ha, evaluated after 13 days, five-point scale
Measured percentage damage caused to the plant, ECHCG accompanies every entry in the list below.

Some compounds with known percentage damage caused to the plant, ECHCG results, for comparison:
Compound: N#Cc1cc(Br)c(O)c(-c2ccsc2)c1 [Compound 1.135]
Test system: Echinochloa crus-galli (ECHCG)
Value: 1 (1=0-20%)

Compound: N#Cc1cc(-c2ccc(F)c(Cl)c2)c(O)c(C(F)(F)F)c1 [Compound 1.160]
Test system: Echinochloa crus-galli (ECHCG)
Value: 1 (1=0-20%)

Compound: N#Cc1cc(-n2cc(Cl)c(C(F)F)n2)c(O)c(C(F)(F)F)c1 [Compound 1.250]
Test system: Echinochloa crus-galli (ECHCG)
Value: 2 (2=21-40%)

Compound: CC(=O)Oc1c(-c2cccc(F)c2)cc(C#N)cc1C(F)(F)F [Compound 2.002]
Test system: Echinochloa crus-galli (ECHCG)
Value: 4 (4=61-80%)

Compound: N#Cc1cc(Br)c(O)c(-c2cccc(F)c2)c1 [Compound 1.046]
Test system: Echinochloa crus-galli (ECHCG)
Value: 2 (2=21-40%)

Read the next record carefully.
stdin: Please look up its percentage damage caused to the plant, ECHCG: N#Cc1cc(-c2cccc(F)c2)c(O)c(C(F)(F)F)c1 [Compound 1.005]
stdout: 4 (4=61-80%)

---

- Tested on: Echinochloa crus-galli (ECHCG)
- Protocol details: Post-emergence herbicidal glasshouse test
- Format: in vivo
- Experimental parameters: post-emergence spray, 1000 g/ha, evaluated after 13 days, five-point scale
Measurement type: percentage damage caused to the plant, ECHCG

Sample answers from the record:
Smiles representation: N#Cc1cc(-c2ccnc(C(F)(F)F)c2)c(O)c(C(F)(F)F)c1
Value: 1 (1=0-20%)
//
Smiles representation: N#Cc1cc(-c2cc(F)cc(F)c2)c(O)c(C(F)(F)F)c1
Value: 2 (2=21-40%)
//
Smiles representation: N#Cc1cc(-n2cc(F)cn2)c(O)c(C(F)(F)F)c1
Value: 1 (1=0-20%)
//
Smiles representation: N#Cc1cc(C#N)c(O)c(-c2cccc(F)c2)c1
Value: 1 (1=0-20%)
//
Smiles representation: N#Cc1cc(-c2ccc(OC(F)(F)F)cc2)c(O)c(C(F)(F)F)c1
Value: 1 (1=0-20%)

stdin: Using the record for "N#Cc1cc(Br)c(O)c(-c2ccc(F)cc2)c1" , report its percentage damage caused to the plant, ECHCG.
stdout: 2 (2=21-40%)

stdin: Another molecule to check: "N#Cc1cccc(-c2cc(C#N)cc(Br)c2O)c1"
stdout: 1 (1=0-20%)

stdin: "N#Cc1cc(-n2cc(Cl)c(C3CC3)n2)c(O)c(C(F)(F)F)c1" ?
stdout: 2 (2=21-40%)
